assay: Lipophilic-hydrophilic balance, Rm of the compound by reversed-phase partition chromatography; format: physicochemical
# note: exactly 0.4 is not below, so it is F; use T for Rm strictly under it

Lookup: A record lists `CCCCCC(=O)N(c1ccc(Nc2c3ccccc3nc3cc(N)ccc23)cc1)S(C)(=O)=O.Cl` . Is its Rm below 0.4?
Found: F

Lookup: A record lists `CC(=O)N(c1ccc(Nc2c3ccc([N+](=O)[O-])cc3nc3c(C)cccc23)cc1)S(C)(=O)=O` . Is its Rm below 0.4?
Found: T

Lookup: A record lists `CCC(=O)N(c1ccc(Nc2c3ccccc3nc3cc([N+](=O)[O-])ccc23)cc1)S(C)(=O)=O` . Is its Rm below 0.4?
Found: T

Lookup: A record lists `CCCN(C)/N=N/c1ccc2c(Nc3ccc(NS(C)(=O)=O)cc3OC)c3ccccc3nc2c1.CS(=O)(=O)O` . Is its Rm below 0.4?
Found: F

Lookup: A record lists `CCC(=O)N(c1ccc(Nc2c3ccccc3nc3c(C)cccc23)c(OC)c1)S(C)(=O)=O` . Is its Rm below 0.4?
Found: T

Lookup: A record lists `CCC(=O)N(c1ccc(Nc2c3ccccc3nc3cc(NC(C)=O)ccc23)cc1)S(C)(=O)=O.Cl` . Is its Rm below 0.4?
Found: T

Lookup: A record lists `CCCCCCCCC(=O)N(c1ccc(Nc2c3ccccc3nc3cc(N)ccc23)cc1)S(C)(=O)=O.Cl` . Is its Rm below 0.4?
Found: F

Lookup: A record lists `Cc1cccc2c(Nc3ccc(NS(C)(=O)=O)cc3)c3ccc([N+](=O)[O-])cc3nc12` . Is its Rm below 0.4?
Found: T

---

test system: Mus musculus; assay: Toxicity in ip dosed mouse assessed as optimum dose that providing maximum increase in life span administered qd for 1 to 5 days; type: organism-based; conditions: in vivo
measurementKind: Activity (mg/kg)
Only the number, expressed in mg/kg, is required.

Lookup: # Activity lookup, item `CCC(=O)N(c1ccc(Nc2c3ccccc3nc3cc([N+](=O)[O-])ccc23)cc1)S(C)(=O)=O`
Found: 50

Lookup: # Activity lookup, item `CCCC(=O)N(c1ccc(Nc2c3ccccc3nc3cc(N)ccc23)cc1)S(C)(=O)=O.Cl`
Found: 1

Lookup: # Activity lookup, item `CCOC(=O)CCC(=O)N(c1ccc(Nc2c3ccccc3nc3c(C)cccc23)c(OC)c1)S(C)(=O)=O`
Found: 18

Lookup: # Activity lookup, item `CCCC(=O)N(c1ccc(Nc2c3ccccc3nc3c(C)cccc23)c(OC)c1)S(C)(=O)=O`
Found: 75

---

experiment: Lipophilic-hydrophilic balance, Rm of the compound by reversed-phase partition chromatography; format: physicochemical
Could you please report measured Rm for the items listed next?

Lookup: # Rm lookup, item `CCCCCCCC(=O)N(c1ccc(Nc2c3ccccc3nc3cc(N)ccc23)cc1)S(C)(=O)=O.Cl`
Found: 0.57

Lookup: # Rm lookup, item CCC(C)C(=O)N(c1ccc(Nc2c3ccccc3nc3cc(NC(C)=O)ccc23)cc1)S(C)(=O)=O.Cl (stereo not given)
Found: 0.38

Lookup: # Rm lookup, item `Br.CCC(=O)N(c1ccc(Nc2c3ccccc3nc3cc(N)ccc23)cc1)S(C)(=O)=O`
Found: -0.04

Lookup: # Rm lookup, item `CCCC(=O)N(c1ccc(Nc2c3ccccc3nc3cc([N+](=O)[O-])ccc23)cc1)S(C)(=O)=O`
Found: 0.27

Lookup: # Rm lookup, item `CS(=O)(=O)Nc1ccc(Nc2c3ccccc3nc3cc([N+](=O)[O-])ccc23)cc1`
Found: -0.07

Lookup: # Rm lookup, item `CCCCCC(=O)N(c1ccc(Nc2c3ccccc3nc3cc(NC(C)=O)ccc23)cc1)S(C)(=O)=O.Cl`
Found: 0.51

Lookup: # Rm lookup, item `COc1cc(N(C(C)=O)S(C)(=O)=O)ccc1Nc1c2ccccc2nc2ccccc12.Cl`
Found: 0.05

Lookup: # Rm lookup, item `CCCCC(=O)N(c1ccc(Nc2c3ccccc3nc3cc(NC(C)=O)ccc23)cc1)S(C)(=O)=O.Cl`
Found: 0.36

Lookup: # Rm lookup, item `Br.CCCCCCCCC(=O)N(c1ccc(Nc2c3ccccc3nc3cc(NC(C)=O)ccc23)cc1)S(C)(=O)=O`
Found: 0.72

Lookup: # Rm lookup, item `CCCC(=O)N(c1ccc(Nc2c3ccccc3nc3cc(N)ccc23)cc1)S(C)(=O)=O.Cl`
Found: 0.13

Lookup: # Rm lookup, item `CCCOC(=O)CCC(=O)N(c1ccc(Nc2c3ccccc3nc3c(C)cccc23)c(OC)c1)S(C)(=O)=O`
Found: 0.75

Lookup: # Rm lookup, item `CCCCCCC(=O)N(c1ccc(Nc2c3ccccc3nc3cc(N)ccc23)cc1)S(C)(=O)=O.Cl`
Found: 0.51

Lookup: # Rm lookup, item `CCCCCCCCC(=O)N(c1ccc(Nc2c3ccccc3nc3cc([N+](=O)[O-])ccc23)cc1)S(C)(=O)=O`
Found: 0.71

Lookup: # Rm lookup, item `Br.CCCCCCC(=O)N(c1ccc(Nc2c3ccccc3nc3cc(NC(C)=O)ccc23)cc1)S(C)(=O)=O`
Found: 0.63

Lookup: # Rm lookup, item `CCCCCCCCC(=O)N(c1ccc(Nc2c3ccccc3nc3ccccc23)cc1)S(C)(=O)=O.Cl`
Found: 0.74

Lookup: # Rm lookup, item `CC(=O)N(c1ccc(Nc2c3ccccc3nc3cc(N)ccc23)cc1)S(C)(=O)=O.Cl`
Found: -0.22

Lookup: # Rm lookup, item `CCCCC(=O)N(c1ccc(Nc2c3ccccc3nc3cc([N+](=O)[O-])ccc23)cc1)S(C)(=O)=O`
Found: 0.32

Lookup: # Rm lookup, item `CCN(CC)/N=N/c1ccc2c(Nc3ccc(NS(C)(=O)=O)cc3)c3ccccc3nc2c1`
Found: 0.49

Lookup: # Rm lookup, item `CCCCC(=O)N(c1ccc(Nc2c3ccccc3nc3cc(N)ccc23)cc1)S(C)(=O)=O.Cl`
Found: 0.31

Lookup: # Rm lookup, item `CCOC(=O)CCC(=O)N(c1ccc(Nc2c3ccccc3nc3c(C)cccc23)c(OC)c1)S(C)(=O)=O`
Found: 0.62

Lookup: # Rm lookup, item `CCCN(C)/N=N/c1ccc2c(Nc3ccc(NS(C)(=O)=O)cc3)c3ccccc3nc2c1.CS(=O)(=O)O`
Found: 0.47

Lookup: # Rm lookup, item `COc1cc(NS(C)(=O)=O)ccc1Nc1c2ccccc2nc2cc(/N=N/N(C)C)ccc12.Cl`
Found: 0.38

Lookup: # Rm lookup, item `CCCCCCC(=O)N(c1ccc(Nc2c3ccccc3nc3cc([N+](=O)[O-])ccc23)cc1)S(C)(=O)=O`
Found: 0.5

Lookup: # Rm lookup, item `CCCC(=O)N(c1ccc(Nc2c3ccc([N+](=O)[O-])cc3nc3c(C)cccc23)cc1)S(C)(=O)=O`
Found: 0.31

Lookup: # Rm lookup, item `Br.CCCCCCCCCCCC(=O)N(c1ccc(Nc2c3ccccc3nc3cc(NC(C)=O)ccc23)cc1)S(C)(=O)=O`
Found: 0.81

Lookup: # Rm lookup, item `CCCC(=O)N(c1ccc(Nc2c3ccccc3nc3cc(NC(C)=O)ccc23)cc1)S(C)(=O)=O.Cl`
Found: 0.22

Lookup: # Rm lookup, item `COc1cc(NS(C)(=O)=O)ccc1Nc1c2ccccc2nc2c(C)cccc12`
Found: 0.11

Lookup: # Rm lookup, item `CCCCC(=O)N(c1ccc(Nc2c3ccccc3nc3c(C)cccc23)c(OC)c1)S(C)(=O)=O`
Found: 0.66

Lookup: # Rm lookup, item `CS(=O)(=O)Nc1ccc(Nc2c3ccccc3nc3cc(N=[N+]=[N-])ccc23)cc1.Cl`
Found: -0.02

Lookup: # Rm lookup, item `CC(=O)Nc1ccc2c(Nc3ccc(N(C(C)=O)S(C)(=O)=O)cc3)c3ccccc3nc2c1.Cl`
Found: -0.19

Lookup: # Rm lookup, item `CS(=O)(=O)Nc1ccc(Nc2c3ccccc3nc3ccccc23)cc1`
Found: 0

Lookup: # Rm lookup, item `CCCC(=O)N(c1ccc(Nc2c3ccccc3nc3c(C)cccc23)c(OC)c1)S(C)(=O)=O`
Found: 0.53

Lookup: # Rm lookup, item `Br.CCCCCCCC(=O)N(c1ccc(Nc2c3ccccc3nc3cc(NC(C)=O)ccc23)cc1)S(C)(=O)=O`
Found: 0.69

Lookup: # Rm lookup, item `COC(=O)N(c1ccc(Nc2c3ccccc3nc3ccccc23)cc1)S(C)(=O)=O.Cl`
Found: 0.07

Lookup: # Rm lookup, item `CC(=O)N(c1ccc(Nc2c3ccccc3nc3ccccc23)cc1)S(C)(=O)=O.Cl`
Found: -0.14
